protocol summary: Partition coefficient (logP)
Assay type: physicochemical
protocol conditions: octanol/water
reported metric: logP

* Cn1ccc2c1CCn1ccnc1C2=C1CCNCC1 | 1.25
* Cl.Cl.NC(=O)c1cnc2n1CCc1ccccc1C21CCNCC1 [VAPITADINE DIHYDROCHLORIDE] | 1.18

###

protocol summary: Solubility in simulated gastric fluid at pH 3.1
Format: physicochemical
reported metric: solubility

• Cl.NC(=O)c1cnc2n1CCc1ccccc1C21CCNCC1 = > 20 mg/mL

###

protocol summary: Solubility in buffer (pH 2) at pH 1.1
Assay type: physicochemical
protocol conditions: in the assay text read “pH 1.8” for “pH 1.1”
reported metric: solubility

* Cl.Cl.NC(=O)c1cnc2n1CCc1ccccc1C21CCNCC1 [VAPITADINE DIHYDROCHLORIDE] | > 20 mg/mL
